Entries and their normalized growth rate inhibition value values follow.
Test system: U2OS
Assay: normalized growth rate inhibition value (GR) relative to untreated cells (GR value (dimensionless, 1 = untreated growth)); higher = less growth inhibition
Settings: 0.0100289 µM; 72 h
Just the number.

Examples with answers:
chemical_structure=Nc1ccc(-c2ccc3ncc4ccc(=O)n(-c5cccc(C(F)(F)F)c5)c4c3c2)cn1 quantitative_readout=0.841
chemical_structure=CCOc1cc2ncc(C#N)c(Nc3ccc(OCc4ccccn4)c(Cl)c3)c2cc1NC(=O)/C=C/CN(C)C quantitative_readout=0.776

What value of normalized growth rate inhibition value on U2OS does `CCc1cnn2c(NCc3ccc[n+]([O-])c3)cc(N3CCCC[C@H]3CCO)nc12` have? -0.288

What value of normalized growth rate inhibition value on U2OS does `CC(=O)O[C@H]1C(=O)[C@@]2(C)[C@H]([C@H](OC(=O)c3ccccc3)[C@]3(O)C[C@H](OC(=O)[C@H](O)[C@@H](NC(=O)c4ccccc4)c4ccccc4)C(C)=C1C3(C)C)[C@]1(OC(C)=O)CO[C@@H]1C[C@@H]2O` have? 1.06

----------
Entries and their normalized growth rate inhibition value values follow.
Test system: U2OS
Test: normalized growth rate inhibition value (GR) relative to untreated cells (GR value (dimensionless, 1 = untreated growth)); higher = less growth inhibition
Conditions: 0.0316 µM; 72 h
Just the number.

molecule=CO[C@@H]1C[C@@H](C[C@H]2CC[C@H](C)[C@H]([C@@H](C)C(=O)O)O2)O[C@]2(O[C@](C)([C@H]3CC[C@@](C)([C@@H]4O[C@@H]([C@H]5O[C@@](O)(CO)[C@H](C)C[C@@H]5C)C[C@@H]4C)O3)C[C@H]2C)[C@@H]1C quantitative_readout=0.78
molecule="CCOc1ccccc1-n1c(C(C)N2CCN(C(=O)COc3ccc(Cl)cc3)CC2)nc2ccccc2c1=O (stereo unspecified)" quantitative_readout=1
molecule=C=CCc1ccc(O)c(-c2ccc(O)c(CC=C)c2)c1 quantitative_readout=1.07
molecule=C=CCn1c(=O)c2cnc(Nc3ccc(N4CCN(C)CC4)cc3)nc2n1-c1cccc(C(C)(C)O)n1 quantitative_readout=1.03
molecule=CC(C)C[C@H](NC(=O)[C@H](Cc1ccccc1)NC(=O)c1cnccn1)B(O)O quantitative_readout=-0.293
molecule=C[C@@H]1O[C@@H](O[C@H]2C[C@@H](O)[C@]3(CO)[C@H]4[C@H](O)C[C@]5(C)[C@@H](C6=CC(=O)OC6)CC[C@]5(O)[C@@H]4CC[C@]3(O)C2)[C@H](O)[C@H](O)[C@H]1O quantitative_readout=0.148
molecule=COC(=O)Nc1nc2cc(C(=O)c3ccc(F)cc3)ccc2[nH]1 quantitative_readout=1
molecule="CC(C)[C@]12O[C@H]1[C@@H]1O[C@]13[C@]1(O[C@H]1C[C@H]1C4=C(CC[C@@]13C)C(=O)OC4)[C@@H]2O [Triptolide]" quantitative_readout=-0.197

Now look at this entry.
Need normalized growth rate inhibition value, item `COCC[n+]1c2c(n(Cc3cnccn3)c1C)C(=O)c1ccccc1C2=O` 0.0141

----------
Tested on: U2OS
Assay: normalized growth rate inhibition value (GR) relative to untreated cells (GR value (dimensionless, 1 = untreated growth)); higher = less growth inhibition
Conditions: 1 µM; 72 h
Entries and their normalized growth rate inhibition value values follow.
Just the number.

Examples with answers:
molecule="Cc1cn(-c2cc(NC(=O)c3ccc(C)c(Nc4nccc(-c5cccnc5)n4)c3)cc(C(F)(F)F)c2)cn1 [Nilotinib]" quantity="normalized growth rate inhibition value" quantitative_readout=0.955
molecule="COC(=O)c1ccc([C@H]2c3[nH]c4ccccc4c3C[C@H](C(=O)OC)N2C(=O)CCl)cc1 [RSL3]" quantity="normalized growth rate inhibition value" quantitative_readout=0.792
molecule="O=C(Nc1ccc([N+](=O)[O-])cc1Cl)c1cc(Cl)ccc1O [Nicolsamide]" quantity="normalized growth rate inhibition value" quantitative_readout=-0.319
molecule="CNc1cc(-c2cccc(Cl)c2Cl)nc(N)n1 [TH287]" quantity="normalized growth rate inhibition value" quantitative_readout=0.278

Now look at this entry.
Need normalized growth rate inhibition value, item COC(=O)Nc1nc2cc(C(=O)c3ccc(F)cc3)ccc2[nH]1 [Flubendazole] 0.286

----------
System: U2OS
Test: fractional viability (live cells / total cells); higher = less cell death
Details: 3.16 µM; 72 h
Lab note: anything with fractional viability below 0.7 is marked condition met; values at 0.7 or higher are marked condition not met.

Consider the following illustrative entries.
compound=Cc1ccc(C(=O)N(CCCN)[C@@H](c2oc3cc(Cl)ccc3c(=O)c2Cc2ccccc2)C(C)C)cc1 subject_of_test=U2OS class_assignment="condition met"
compound="CC(C)[C@]12O[C@H]1[C@@H]1O[C@]13[C@]1(O[C@H]1C[C@H]1C4=C(CC[C@@]13C)C(=O)OC4)[C@@H]2O [Triptolide]" subject_of_test=U2OS class_assignment="condition met"
compound="Cn1nnc2c(C(N)=O)ncn2c1=O [Temozolamide]" subject_of_test=U2OS class_assignment="condition not met"
compound=Nc1ccccc1NC(=O)c1ccc(CNC(=O)OCc2cccnc2)cc1 subject_of_test=U2OS class_assignment="condition not met"

is_below(fractional viability, 0.7) for `O=C(O)CCCc1ccc(N(CCCl)CCCl)cc1` ? condition not met

is_below(fractional viability, 0.7) for `CC[C@@H](C(=O)[C@@H](C)[C@@H](O)[C@H](C)[C@@H]1O[C@@H]([C@@H](CC)C(=O)O)CC[C@@H]1C)[C@H]1O[C@]2(C=C[C@@H](O)[C@]3(CC[C@@](C)([C@H]4CC[C@](O)(CC)[C@H](C)O4)O3)O2)[C@H](C)C[C@@H]1C` ? condition not met

is_below(fractional viability, 0.7) for `C=CCn1c(=O)c2cnc(Nc3ccc(N4CCN(C)CC4)cc3)nc2n1-c1cccc(C(C)(C)O)n1` ? condition met

----------
System: U2OS
Assay: normalized growth rate inhibition value (GR) relative to untreated cells (GR value (dimensionless, 1 = untreated growth)); higher = less growth inhibition
Settings: 0.000317827 µM; 72 h
quantity: normalized growth rate inhibition value
Just the number.

Examples with answers:
compound="CC(=O)O[C@H]1C(=O)[C@@]2(C)[C@H]([C@H](OC(=O)c3ccccc3)[C@]3(O)C[C@H](OC(=O)[C@H](O)[C@@H](NC(=O)c4ccccc4)c4ccccc4)C(C)=C1C3(C)C)[C@]1(OC(C)=O)CO[C@@H]1C[C@@H]2O [Taxol]" quantitative_readout=1.2
compound="CC[C@@H]1C(=O)N(C)c2cnc(Nc3ccc(C(=O)N[C@H]4CC[C@H](N5CCN(CC6CC6)CC5)CC4)cc3OC)nc2N1C(C)C [Volasertib]" quantitative_readout=1.07
compound="Nc1ccc(-c2ccc3ncc4ccc(=O)n(-c5cccc(C(F)(F)F)c5)c4c3c2)cn1 [Torin2]" quantitative_readout=0.854
compound="CCc1cnn2c(NCc3ccc[n+]([O-])c3)cc(N3CCCC[C@H]3CCO)nc12 [Dinaciclib]" quantitative_readout=0.802
compound="CC(=O)Nc1cccc(-n2c(=O)n(C3CC3)c(=O)c3c(Nc4ccc(I)cc4F)n(C)c(=O)c(C)c32)c1 [Trametinib]" quantitative_readout=0.677
compound="CCNC(=O)c1noc(-c2cc(C(C)C)c(O)cc2O)c1-c1ccc(CN2CCOCC2)cc1 [Luminespib]" quantitative_readout=0.878
compound="CCOc1cc2ncc(C#N)c(Nc3ccc(OCc4ccccn4)c(Cl)c3)c2cc1NC(=O)/C=C/CN(C)C [Neratinib]" quantitative_readout=0.803

Need normalized growth rate inhibition value, item CC(=O)c1c(C)c2cnc(Nc3ccc(N4CCNCC4)cn3)nc2n(C2CCCC2)c1=O [Palbociclib] 1.08

----------
Test system: U2OS
Experiment: drug GRADE (percent of response due to cell death) (% (0-100)); higher = more death-driven response
Details: 72 h
quantity: drug GRADE
Just the number.

Examples with answers:
compound=COc1cc2c(Oc3ccc4[nH]c(C)cc4c3F)ncnc2cc1OCCCN1CCCC1 quantity="drug GRADE" quantitative_readout=55.1
compound="CC(C)[C@]12O[C@H]1[C@@H]1O[C@]13[C@]1(O[C@H]1C[C@H]1C4=C(CC[C@@]13C)C(=O)OC4)[C@@H]2O [Triptolide]" quantity="drug GRADE" quantitative_readout=8
compound=COc1cc2c(Oc3ccc(NC(=O)C4(C(=O)Nc5ccc(F)cc5)CC4)cc3F)ccnc2cc1OCCCN1CCOCC1 quantity="drug GRADE" quantitative_readout=39.7

Need drug GRADE, item `CCOc1cc2ncc(C#N)c(Nc3ccc(OCc4ccccn4)c(Cl)c3)c2cc1NC(=O)/C=C/CN(C)C` 20

Need drug GRADE, item `CC[C@]1(O)C[C@H]2CN(CCc3c([nH]c4ccccc34)[C@@](C(=O)OC)(c3cc4c(cc3OC)N(C=O)[C@H]3[C@@](O)(C(=O)OC)[C@H](OC(C)=O)[C@]5(CC)C=CCN6CC[C@]43[C@@H]65)C2)C1` 67.6

Need drug GRADE, item `COC(=O)c1ccc([C@H]2c3[nH]c4ccccc4c3C[C@H](C(=O)OC)N2C(=O)CCl)cc1` 54.5

Need drug GRADE, item `Cc1cc(Nc2ccc(NC(=O)c3ccc(Nc4ccnc5ccccc45)cc3)cc2)nc(N)n1` 37.1

Need drug GRADE, item `CNC(=O)c1ccccc1Sc1ccc2c(/C=C/c3ccccn3)n[nH]c2c1` 32.1

Need drug GRADE, item C[C@H]1[C@H](OC(=O)CCC(=O)O)O[C@@H]2O[C@@]3(C)CC[C@H]4[C@H](C)CC[C@@H]1[C@@]24OO3 [Artesunate] 35.4

Need drug GRADE, item Cc1c(N)nc([C@H](CC(N)=O)NC[C@H](N)C(N)=O)nc1C(=O)N[C@H](C(=O)N[C@H](C)[C@@H](O)[C@H](C)C(=O)N[C@H](C(=O)NCCc1nc(-c2nc(C(=O)NCCC[S+](C)C)cs2)cs1)[C@@H](C)O)[C@@H](OC1OC(CO)C(O)C(O)C1OC1OC(CO)C(O)C(OC(N)=O)C1O)c1cnc[nH]1 (stereo partly drawn) 6.06
